The reported numbers originate from patent US10738028B2.

Reported Anti-bacterial activity (MIC) is given for each of the following compounds.
test system: Moraxella catarrhalis (BCA); assay: MIC, two-fold agar dilution (CLSI), clinical isolates; format: cell-based; conditions: strain BCA 14-8
Note: unit µg/mL is implicit; provide only the numeric part.

In [3]: df
Out[3]:
                                   compound                    readouttype  valueunit  observedresult
0  CCCC[C@H](CC(=O)NO)C(=O)N1CC2(CCCC2)C[C@H]1C(=O)Nc1ccc(F)cn1  Anti-bacterial activity (MIC)      µg/mL            0.25
1  O=C(C[C@@H](CC1CCCC1)C(=O)N1CC2(CC2)C[C@H]1C(=O)Nc1ccno1)NO  Anti-bacterial activity (MIC)      µg/mL               1
2  O=C(C[C@@H](CC1CCCC1)C(=O)N1CC2(CC2)C[C@H]1c1nc2ccccc2[nH]1)NO  Anti-bacterial activity (MIC)      µg/mL               4
3  CCCC[C@H](CN(O)C=O)C(=O)N1CCC[C@H]1C(=O)Nc1ccc(F)c[n+]1[O-] [LBM415, reference compound]  Anti-bacterial activity (MIC)      µg/mL             0.5

Read the next record carefully.
Documented Anti-bacterial activity (MIC) of O=C(C[C@@H](CC1CCCC1)C(=O)N1CC2(CC2)C[C@H]1C(=O)Nc1nc(C(F)(F)F)cs1)NO : 0.25

====

Reported Anti-bacterial activity (MIC), strain MSSE 15-5 is given for each of the following compounds.
tested on: methicillin-sensitive Staphylococcus epidermidis (MSSE); test: MIC, two-fold agar dilution (CLSI), clinical isolates; assay type: cell-based; conditions: clinical isolate MSSE 15-5
Note: unit µg/mL is implicit; provide only the numeric part.

>>> print(df.to_string())
                                 smilescode  valueunit  observedresult
0  CCCC[C@H](CC(=O)NO)C(=O)N1CC2(CC2)C[C@H]1C(=O)Nc1cc(C(C)(C)C)on1      µg/mL               1

Documented Anti-bacterial activity (MIC), strain MSSE 15-5 of O=CN(O)C[C@@H](CC1CCCC1)C(=O)N1CC2(CC2)C[C@H]1c1nc2ccccc2[nH]1 : 2

Documented Anti-bacterial activity (MIC), strain MSSE 15-5 of Cc1cc(NC(=O)[C@@H]2CC3(CC3)CN2C(=O)[C@@H](CC(=O)NO)CC2CCCC2)no1 : 0.06

Documented Anti-bacterial activity (MIC), strain MSSE 15-5 of CCCC[C@H](CC(=O)NO)C(=O)N1CC2(CC2)C[C@H]1C(=O)Nc1nc(C)cs1 : 0.06

Documented Anti-bacterial activity (MIC), strain MSSE 15-5 of O=C(C[C@@H](CC1CCCC1)C(=O)N1CC2(CC2)C[C@H]1C(=O)Nc1ccc(F)cn1)NO : 0.06

Documented Anti-bacterial activity (MIC), strain MSSE 15-5 of CCCC[C@H](CC(=O)NO)C(=O)N1CC2(CCCC2)C[C@H]1C(=O)Nc1ccc(F)cn1 : 0.25

====

test system: methicillin-sensitive Staphylococcus epidermidis (MSSE); test: MIC, two-fold agar dilution (CLSI), clinical isolates; assay type: cell-based; settings: strain MSSE 15-3
Reported MIC (anti-bacterial activity) is given for each of the following compounds.
Note: unit µg/mL is implicit; provide only the numeric part.

>>> print(df.to_string())
                                 smilescode  valueunit  observedresult
0  CCCC[C@H](CN(O)C=O)C(=O)N1CC2(CC2)C[C@H]1C(=O)Nc1cc(C)on1      µg/mL             0.5
1  O=CN(O)C[C@@H](CC1CCCC1)C(=O)N1CC2(CC2)C[C@H]1C(=O)Nc1ccc(N2CCOCC2)cc1      µg/mL            0.25
2  O=CN(O)C[C@@H](CC1CCCC1)C(=O)N1CC2(CC2)C[C@H]1C(=O)Nc1ccc(F)cn1      µg/mL           0.125
3  CCCC[C@H](CN(O)C=O)C(=O)N1CC2(CC2)C[C@H]1c1nc2ccccc2n1CCN(C)C      µg/mL               8
4  O=CN(O)C[C@@H](CC1CCCC1)C(=O)N1CC2(CC2)C[C@H]1C(=O)Nc1ncco1      µg/mL               8
5  O=CN(O)C[C@@H](CC1CCCC1)C(=O)N1CC2(CC2)C[C@H]1C(=O)N1CCS(=O)(=O)CC1      µg/mL              32
6  CCCC[C@H](CN(O)C=O)C(=O)N1CC2(CC2)C[C@H]1C(=O)Nc1ccncn1      µg/mL               1
7  CCCC[C@H](CN(O)C=O)C(=O)N1CC2(CC2)C[C@H]1C(=O)Nc1nccs1      µg/mL            0.06

Documented MIC (anti-bacterial activity) of O=CN(O)C[C@@H](CC1CCCC1)C(=O)N1CC2(CC2)C[C@H]1C(=O)NC1CC1 : 2

Documented MIC (anti-bacterial activity) of O=CN(O)C[C@@H](CC1CCCC1)C(=O)N1CC2(CC2)C[C@H]1C(=O)Nc1ncccc1F : 2

Documented MIC (anti-bacterial activity) of CCCC[C@H](CN(O)C=O)C(=O)N1CC2(CC2)C[C@H]1C(=O)Nc1nncs1 : 0.25

Documented MIC (anti-bacterial activity) of CCCC[C@H](CN(O)C=O)C(=O)N1CC2(CC2)C[C@H]1C(=O)Nc1nc(C)cs1 : 0.125

====

system: Enterococcus faecalis (EFA); assay: MIC, two-fold agar dilution (CLSI), clinical isolates; assay type: cell-based; settings: strain EFA 15-4
readoutType: Anti-bacterial activity (MIC) (µg/mL)
Note: unit µg/mL is implicit; provide only the numeric part.

Solved entries (count: 2):
In [3]: df
Out[3]:
                                   molecule               targetorsystem                    readouttype  observedresult
0  CCCC[C@H](CC(=O)NO)C(=O)N1CC2(CCCC2)C[C@H]1C(=O)Nc1cnccn1  Enterococcus faecalis (EFA)  Anti-bacterial activity (MIC)              32
1  O=C(C[C@@H](CC1CCCC1)C(=O)N1CC2(CC2)C[C@H]1C(=O)Nc1nc(C(F)(F)F)cs1)NO  Enterococcus faecalis (EFA)  Anti-bacterial activity (MIC)               2

Documented Anti-bacterial activity (MIC) of O=C(C[C@@H](CC1CCCC1)C(=O)N1CC2(CC2)C[C@H]1C(=O)Nc1nccs1)NO : 32

Documented Anti-bacterial activity (MIC) of CCCC[C@H](CC(=O)NO)C(=O)N1CC2(CCCC2)C[C@H]1C(=O)Nc1ncc(C)s1 : 32

Documented Anti-bacterial activity (MIC) of O=C(C[C@@H](CC1CCCC1)C(=O)N1CC2(CC2)C[C@H]1C(=O)Nc1ncccc1F)NO : 32

Documented Anti-bacterial activity (MIC) of O=C(C[C@@H](CC1CCCC1)C(=O)N1CC2(CC2)C[C@H]1C(=O)Nc1ccno1)NO : 32

Documented Anti-bacterial activity (MIC) of CCCC[C@H](CN(O)C=O)C(=O)N1CCC[C@H]1C(=O)Nc1ccc(F)c[n+]1[O-] [LBM415, reference compound] : 2

====

tested on: Enterococcus faecalis (EFA); experiment: MIC, two-fold agar dilution (CLSI), clinical isolates; format: cell-based; conditions: clinical isolate EFA 15-3
readoutType: Anti-bacterial activity (MIC), strain EFA 15-3

Solved entries (count: 2):
                                 smilescode               targetorsystem  observedresult
0  CCCC[C@H](CC(=O)NO)C(=O)N1CC2(CC2)C[C@H]1c1nc2ccccc2n1CCN(C)C  Enterococcus faecalis (EFA)      > 32 µg/mL
1  CCCC[C@H](CC(=O)NO)C(=O)N1CC2(CC2)C[C@@H]1c1nc2ccccc2[nH]1  Enterococcus faecalis (EFA)      > 32 µg/mL

Read the next record carefully.
Documented Anti-bacterial activity (MIC), strain EFA 15-3 of CCCC[C@H](CC(=O)NO)C(=O)N1CC2(CC2)C[C@H]1C(=O)Nc1cnccn1 : > 32 µg/mL

====

test system: Escherichia coli (including ESBLs, non-ESBLs); assay: MIC, two-fold agar dilution (CLSI), clinical isolates; assay type: cell-based; details: clinical isolate ECO+ 15-1
readoutType: Anti-bacterial activity (MIC), strain ECO+ 15-1

                                   molecule                            targetorsystem  observedresult
0  CCCC[C@H](CC(=O)NO)C(=O)N1CC2(CC2)C[C@H]1c1nc2ccccc2[nH]1 [Example 58]  Escherichia coli (including ESBLs, non-ESBLs)      > 32 µg/mL
1  CCCC[C@H](CC(=O)NO)C(=O)N1CC2(CC2)C[C@H]1C(=O)Nc1cc(C)on1 [Example 56]  Escherichia coli (including ESBLs, non-ESBLs)      > 16 µg/mL
2  CCCC[C@H](CC(=O)NO)C(=O)N1CC2(CC2)C[C@H]1C(=O)Nc1ncccc1F [Example 49]  Escherichia coli (including ESBLs, non-ESBLs)      > 32 µg/mL

Documented Anti-bacterial activity (MIC), strain ECO+ 15-1 of CCCC[C@H](CC(=O)NO)C(=O)N1CC2(CC2)C[C@H]1C(=O)Nc1ncco1 [Example 53] : > 32 µg/mL

Documented Anti-bacterial activity (MIC), strain ECO+ 15-1 of CCCC[C@H](CC(=O)NO)C(=O)N1CC2(CC2)C[C@H]1c1nc2ccccc2n1CCN(C)C [Example 60] : > 32 µg/mL

Documented Anti-bacterial activity (MIC), strain ECO+ 15-1 of CCCC[C@H](CC(=O)NO)C(=O)N1CC2(CC2)C[C@H]1C(=O)Nc1ccno1 [Example 54] : > 32 µg/mL
